System: K-562 leukemia
assayExplanation: NCI-60 one-dose screen, 48 h
experimentalConditions: 10 µM unless noted
The panel holds about 83,000 compounds, 20% with a hit somewhere; the sample as a whole holds those more often. The source made the active and inactive calls. How the source made its calls: active means growth percent below 10; inactive means the rest.
Write down the outcome that applies. Available outcomes: TRUE for active, FALSE for inactive

A selection of reference data follows.
>  <molecule>
CCCCOP(=O)(OCCCC)C(C(=O)OCC)C(CC(=O)OCC)C(=O)OCC (stereo unspecified)

>  <category>
FALSE

$$$$
>  <molecule>
Cc1n(Cc2ccc3ccccc3c2)cc[n+]1Cc1ccc2ccccc2c1

>  <category>
FALSE

$$$$
>  <molecule>
COc1cccc(N2CCN(c3cccc(C)n3)CC2)c1

>  <category>
FALSE

$$$$
>  <molecule>
CC(C)=CCCC(C)c1ccc(C)c2c1OCN(CC1CCNCC1)C2 (stereo unspecified)

>  <category>
TRUE

$$$$
>  <molecule>
COc1cc(NC(C)CCCN)c2nc(C)ccc2c1Oc1ccc(F)cc1 (stereo unspecified)

>  <category>
FALSE

$$$$
>  <molecule>
CCOC(=O)c1cc2oc(/C=C/c3cc(=O)c4cc(Cl)ccc4o3)cc2[nH]1

>  <category>
FALSE

$$$$

Qu. Short answer needed: outcome of this test for Cc1ccc(N/N=C(/C(=O)c2ccc(Cl)cc2)c2nc(C)cc(=O)[nH]2)cc1 ?
Ans. FALSE

Qu. Short answer needed: outcome of this test for CC(C)OP(=O)(OC(C)C)c1ncc(-c2ccc(C(F)(F)F)cc2)c(NC2CCCCCC2)n1 ?
Ans. TRUE

Qu. Short answer needed: outcome of this test for COC(=O)[C@H]1[C@H]2C[C@@H]3c4[nH]c5cc(OC)ccc5c4CCN3C[C@H]2C[C@@H](OC(=O)/C=C/c2cc(OC)c(OC)c(OC)c2)[C@@H]1OC ?
Ans. TRUE

Qu. Short answer needed: outcome of this test for CCSc1nc(-c2cccs2)n2nc(-c3ccco3)cc2n1 ?
Ans. FALSE

Qu. Short answer needed: outcome of this test for CC(=O)N1N=C(c2ccc(Nc3nc(NCCO)nc(NCCO)n3)cc2)CC1c1ccc(Cl)cc1 (stereo unspecified) ?
Ans. FALSE

Qu. Short answer needed: outcome of this test for COc1cnc2c(c1)C(=O)c1c-2n(CCCn2ccnc2)c(=O)c2cc(F)ccc12 ?
Ans. TRUE

Qu. Short answer needed: outcome of this test for Cc1cc(Br)c(C)cc1Br ?
Ans. FALSE

Qu. Short answer needed: outcome of this test for Cc1cc(C)nc(NS(=O)(=O)c2ccc(Nc3nc4nc(SCc5ccccc5)nc(-c5ccc(O)cc5)c4c(=O)[nH]3)cc2)n1 ?
Ans. FALSE

Qu. Short answer needed: outcome of this test for c1ccc(COc2ccc(Nc3ncnc4c3cnn4-c3ccccc3)cc2)cc1 ?
Ans. FALSE

Qu. Short answer needed: outcome of this test for C=C1CCC2C3(C)COC(c4ccccc4)OC3CCC2(C)C1C/C=C1/C(=O)OCC1OC(C)=O (stereo unspecified) ?
Ans. FALSE

Qu. Short answer needed: outcome of this test for COc1cc(/C=C2\CN(S(=O)(=O)c3ccc(C)cc3)C/C(=C\c3cc(CN4CCOCC4)c(O)c(OC)c3)C2=O)cc(CN2CCOCC2)c1O ?
Ans. FALSE

Qu. Short answer needed: outcome of this test for C/C(=C\CCc1ccoc1)CC/C=C(\C)CCCC1COC(=O)C1 (stereo unspecified) ?
Ans. FALSE

Qu. Short answer needed: outcome of this test for COc1ccc2c(c1)C(=Nc1cc(OC)c(OC)c(OC)c1)C(=O)N2 ?
Ans. FALSE

Qu. Short answer needed: outcome of this test for O=Cc1ncc(-c2ccc(C(F)(F)F)cc2)c(NC2CCCCCC2)n1 ?
Ans. TRUE

Qu. Short answer needed: outcome of this test for O=C(NN1C(=O)c2cc(C(=O)O)c(C(=O)O)cc2C1=O)c1ccncc1 ?
Ans. FALSE

Qu. Short answer needed: outcome of this test for COc1ccc2cc(-c3nc4ccccc4[nH]3)c(=O)oc2c1 ?
Ans. FALSE
